Recorded pIC50 by entry
assay: Displacement of [3H]flunitrazepam from benzodiazepine receptor in rat forebrain
Number only, please.

{"columns": ["molecule", "experimental_result"],
 "data": [
  ["CCc1c(CC2=CC2)c(OC)nc2nc(C(=O)c3ccccc3)cn12", 7.377],
  ["COc1nc2nc(C(=O)c3ccccc3)cn2c(C)c1OC", 6],
  ["COc1cc(C)n2cc(C(=O)c3ccccc3)nc2n1", 6.097],
  ["CCCc1c(OC)nc2nc(C(=O)c3ccccc3)cn2c1CC", 7.469],
  ["CCCc1c(SC)nc2nc(C(=O)c3ccccc3)cn2c1CC", 7.328],
  ["CCc1cc(OC)nc2nc(C(=O)c3ccccc3)cn12", 6.53],
  ["CCCCc1cc(OC)nc2nc(C(=O)c3ccccc3)cn12", 6.469],
  ["CCCc1cc(OC)nc2nc(C(=O)c3ccccc3)cn12", 6.272]
]}

Query molecule follows.
What value of pIC50 has been recorded for this entry: CCCCc1c(OC)nc2nc(C(=O)c3ccccc3)cn2c1C
7.377

====

assay: Displacement of [3H]diazepam from benzodiazepine receptor
readout: pIC50
Answer with the value's number alone.

Below, 3 compounds whose answers are already recorded.
{"columns": ["compound", "experimental_result"],
 "data": [
  ["c1ccc2c(c1)Cc1cnccc1-2", 5.79],
  ["CCOc1cc2c(cn1)Cc1ccccc1-2", 7.62],
  ["Oc1cc2c(cn1)Cc1ccccc1-2", 5.4]
]}

Bench note: what pIC50 did COC(=O)c1cc2c(cn1)Cc1ccccc1-2 show?
8.3

Please report the recorded pIC50 for CCOC(=O)c1ncc2c(c1COC)-c1cc(O)ccc1C2 .
9.05

If you can, please state the reported pIC50 value of CCOC(=O)c1ncc2c(c1CC)-c1cc(OCc3ccccc3)ccc1C2 .
7.66

Sample S=C=Nc1cc2c(cn1)Cc1ccccc1-2 — what was its pIC50?
8.1

Which pIC50 value belongs to CCCOc1cc2c(cn1)Cc1ccccc1-2 ?
7.96

Consider the compound shown here: Clc1cc2c(cn1)Cc1ccccc1-2 What is its recorded pIC50?
7.35

Request the reported pIC50 associated with CCOC(=O)c1ncc2c(c1COC)-c1cc(OCc3ccccc3)ccc1C2
9

What value of pIC50 has been reported for the following compound? Nc1cc2c(cn1)Cc1ccccc1-2
4.6

Could you tell me which pIC50 is on file for CCOC(=O)c1cc2c(cn1)Cc1ccc(OCc3ccccc3)cc1-2 ?
8.05

Entry CCOC(=O)c1ncc2c(c1COC)-c1cc(OCc3ccccc3)ccc1C2C (stereo not drawn) has what pIC50?
6.02

====

In this section we review reported pIC50 values for a set of compounds.
assay: Displacement of [3H]diazepam from benzodiazepine receptor in rat brain; format: tissue-based
Please give only the number in your answer, with no unit.

{"columns": ["compound", "pIC50"],
 "data": [
  ["CN(C)c1ncnc2c1nc(Br)n2Cc1cccc(NC=O)c1", 7.96],
  ["CN(C)c1ncnc2c1nc(Br)n2Cc1cccc(NS(C)(=O)=O)c1", 5.82],
  ["CN(C)c1ncnc2c1ncn2Cc1ccccc1Cl", 4.89],
  ["CN(C)c1ncnc2c1nc(O)n2Cc1cccc(N)c1", 5.74],
  ["CNc1nc2c(N(C)C)ncnc2n1Cc1cccc(N)c1", 5.14],
  ["O=[N+]([O-])c1cc2c3ccccc3nc-2c[nH]1", 6.9]
]}

May I ask what pIC50 has been recorded for COC(=O)Nc1cccc(Cn2c(Br)nc3c(N(C)C)ncnc32)c1 ?
5.28

Form field: reported pIC50 of CN(C)c1ncnc2c1ncn2Cc1ccccc1
4.89

====

# Lookup of reported pIC50 keyed by entry
test: Displacement of [3H]flunitrazepam from benzodiazepine receptor in rat forebrain
// return just the number, without any unit appended

Worked examples, 5 compounds total:
{"columns": ["smiles_text", "pIC50"],
 "data": [
  ["CCCc1cc(SC)nc2nc(C(=O)c3ccccc3)cn12", 7.051],
  ["CSc1cc(C)n2cc(C(=O)c3ccccc3)nc2n1", 6.721],
  ["CCc1c(SC)nc2nc(C(=O)c3ccccc3)cn2c1C", 7.921],
  ["C=CCc1c(SC)nc2nc(C(=O)c3ccccc3)cn2c1C", 8.097],
  ["CCc1cn2cc(C(=O)c3ccccc3)nc2nc1OC", 5.824]
]}

// switching to the query compound
Find the recorded pIC50 belonging to CCc1c(OC)nc2nc(C(=O)c3ccccc3)cn2c1CC and report it.
6.971

====

Quick reference: pIC50 of the listed items.
experiment: Displacement of [3H]diazepam from benzodiazepine receptor
Format: numeric value only, no unit, no commentary.

{"columns": ["smiles_text", "readout", "experimental_result"],
 "data": [
  ["COc1cc2c(cn1)Cc1ccccc1-2", "pIC50", 6.91],
  ["CCOC(=O)c1ncc2c(c1COC)-c1cc(OC)ccc1C2", "pIC50", 9.3],
  ["O=[N+]([O-])c1cc2c(cn1)Cc1ccccc1-2", "pIC50", 6.9]
]}

Now consider the entry below.
What pIC50 value was documented for this compound, CCOC(=O)c1ncc2c(c1COC)-c1ccccc1C2 ?
8.64

====

assay: Displacement of [3H]flunitrazepam from benzodiazepine receptor in rat forebrain
Items are presented alongside their recorded pIC50.
Respond with the number and no other words.

The cases that follow already have their pIC50 on record.
{"columns": ["smiles_text", "pIC50"],
 "data": [
  ["CCc1c(OC)nc2nc(C(=O)c3ccccc3)cn2c1C", 7.252],
  ["CCCCc1c(OC)nc2nc(C(=O)c3ccccc3)cn2c1CC", 7.469]
]}

API: the following record is the query input.
What value of pIC50 has been reported for the following compound? CCCc1c(OC)nc2nc(C(=O)c3ccccc3)cn2c1C
7.071

====

assay: Displacement of [3H]diazepam from benzodiazepine receptor in rat brain; format: tissue-based
// reported pIC50 per item
Answer using only a numeral; do not append any unit.

Use these answered entries as a reference point.
{"columns": ["molecule", "pIC50"],
 "data": [
  ["CNc1nc2c(N(C)C)ncnc2n1Cc1ccccc1", 4.77],
  ["CN(C)c1ncnc2c1nc(Cl)n2Cc1cccc(N)c1", 6.72],
  ["CC(C)(C)COC(=O)c1cc2c3ccccc3nc-2c[nH]1", 6.12],
  ["CC(C)(C)OC(=O)c1cc2c3ccccc3nc-2c[nH]1", 8],
  ["CC(C)Oc1cc2c(cn1)[nH]c1ccccc12", 6.29],
  ["COc1nc2c(N(C)C)ncnc2n1Cc1cccc(N)c1", 6]
]}

Look up pIC50 for this molecule: CN(C)c1ncnc2c1nc(N(C)C)n2Cc1cccc(N)c1
6.22

I have this molecule here, CN(C)c1ncnc2c1ncn2Cc1cccc(NC=O)c1 , and I need its recorded pIC50.
7.47

====

assay: Displacement of [3H]diazepam from benzodiazepine receptor in rat brain; type: tissue-based
readout: pIC50
Provide a numeric answer; units are not to be included.

Below, 6 compounds whose answers are already recorded.
{"columns": ["compound", "pIC50"],
 "data": [
  ["CCCCc1cc2c(cn1)[nH]c1ccccc12", 6.64],
  ["CC(=O)Oc1cccc(Cn2cnc3c(N(C)C)ncnc32)c1", 6.36],
  ["COc1nc2c(N(C)C)ncnc2n1Cc1ccccc1", 5.27],
  ["CN(C)c1ncnc2c1ncn2Cc1cccc(N)c1", 6.05],
  ["CN(C)c1ncnc2c1ncn2Cc1cccc(CO)c1", 5.3],
  ["CCOc1cc2c(cn1)[nH]c1ccccc12", 7.62]
]}

May I ask what pIC50 has been recorded for CC(=O)Nc1cccc(Cn2c(Br)nc3c(N(C)C)ncnc32)c1 ?
6.08

Look up pIC50 for this compound: CN(C)c1ncnc2c1nc(N(C)C)n2Cc1cccc(NC=O)c1
6.96

Consider the compound CCCC(=O)c1cc2c(cn1)[nH]c1ccccc12 and give its measured pIC50.
7.64

====

// pIC50 lookup, one value per entry
test: Displacement of [3H]diazepam from benzodiazepine receptor in rat brain; assay type: tissue-based
Form field (numeric): enter value without unit.

Example compounds with recorded pIC50:
{"columns": ["compound", "experimental_result"],
 "data": [
  ["CN(C)c1ncnc2c1nc(Br)n2Cc1cccc(NC(N)=O)c1", 7.6],
  ["COc1ccccc1Cn1cnc2c(N(C)C)ncnc21", 4.7],
  ["c1ccc(COc2nccc3c2[nH]c2ccccc23)cc1", 6]
]}

Name the reported pIC50 value associated with the compound CNc1nc2c(N(C)C)ncnc2n1Cc1cccc(NC=O)c1
6.44

Given Cc1nc2c(N(C)C)ncnc2n1Cc1ccccc1 , state its recorded pIC50.
5.07

Dear colleague, I am looking for the recorded pIC50 of the following compound: CC(C)(C)COc1nccc2c1[nH]c1ccccc12
7.02

====

test: Displacement of [3H]diazepam from benzodiazepine receptor in rat brain; format: tissue-based
Classification field: enter t for pIC50 values not below 6, f for values below it.

Consider the following illustrative entries.
{"columns": ["compound", "assigned_category"],
 "data": [
  ["CN(C)c1ncnc2c1nc(Br)n2Cc1cccc(NC(=O)c2ccccc2)c1", "f"],
  ["CN(C)c1ncnc2c1nc(Br)n2Cc1cccc(N)c1", "t"],
  ["COC(=O)c1cc2c(cn1)[nH]c1ccccc12", "t"]
]}

Quick check, pIC50 >= 6? CN(C)c1ncnc2c1ncn2Cc1cccc(F)c1
f

Textbook exercise: given the entry CC(C)(C)C(=O)c1nccc2c1[nH]c1ccccc12 , state whether its pIC50 is greater than or equal to 6.
t

Quick check, pIC50 >= 6? CCCCOc1cc2c(cn1)[nH]c1ccccc12
t

# check: pIC50 of Clc1cc2c(cn1)[nH]c1ccccc12 is greater than or equal to 6
t

// inclusive: pIC50 at least 6? input: CN(C)c1ncnc2c1ncn2Cc1ccccc1F
f
